assay target: Transcriptional activator protein LuxR (Aliivibrio fischeri)
Sequence (P12746 whole entry): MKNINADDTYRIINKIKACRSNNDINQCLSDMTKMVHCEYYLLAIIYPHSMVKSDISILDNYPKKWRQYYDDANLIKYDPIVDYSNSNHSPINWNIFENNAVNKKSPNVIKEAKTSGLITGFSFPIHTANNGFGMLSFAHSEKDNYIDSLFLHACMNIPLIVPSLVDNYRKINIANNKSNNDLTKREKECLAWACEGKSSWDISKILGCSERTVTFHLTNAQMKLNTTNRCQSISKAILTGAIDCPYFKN
test protocol: Antagonist activity at Vibrio fischeri LuxR assessed as inhibition of 3-oxo-C6-HSL-induced quorum sensing activation mediated bioluminescence
Format: functional
assay context: read-out: IC50
quantity name: IC50 (µM)
Number in µM, nothing else.

Please review the entries below; each comes with its answer.
compound_structure=CCCCCCn1cc[n+](C(c2ccc(Cl)cc2)c2ccc(Cl)cc2)c1 quantity_name=IC50 measured_number=63
compound_structure=CCCCCCCCCCn1cc[n+](C(c2ccc(Cl)cc2Cl)c2ccc(Cl)cc2Cl)c1 quantity_name=IC50 measured_number=4.9
compound_structure=CCCCCCCCCCCCCCn1cc[n+](C2CCCC2)c1 quantity_name=IC50 measured_number=3.4
compound_structure=CCCCCCCCn1cc[n+](C(c2ccc(Cl)cc2)c2ccc(Cl)cc2)c1 quantity_name=IC50 measured_number=9.8
compound_structure=CCCCCCCCCCCCCCCCn1cc[n+](C2c3ccccc3-c3ccccc32)c1 quantity_name=IC50 measured_number=14.7
compound_structure=CCCCCCCCCCn1cc[n+](C(c2ccc(Cl)cc2)c2ccc(Cl)cc2)c1 quantity_name=IC50 measured_number=5.8

Give the value of IC50 reported for the following: CCCCCCCCCCCCCCCCCCn1cc[n+](C2CCCC2)c1
86

Read the entry CCCCCCCCCCn1cc[n+](C2c3ccccc3-c3ccccc32)c1 and write its reported IC50.
4

Using known records, supply IC50 for CCCCCCCCCCCCn1cc[n+](C(c2ccc(Cl)cc2)c2ccc(Cl)cc2)c1
6.2

Recall and state the measured IC50 for CCCCCCCCCCCCCCn1cc[n+](C2c3ccccc3-c3ccccc32)c1 .
2.7
